B1: HDV Ribozyme (parent)
chain: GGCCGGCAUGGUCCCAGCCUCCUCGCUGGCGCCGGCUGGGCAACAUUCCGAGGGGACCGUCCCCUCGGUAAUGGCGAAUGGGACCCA

- Variants of: B1
- assay text: self-cleavage, relative activity (ratio to wild type); higher = more cleavage; co-transcriptional
Param threshold (0.2) applies to self-cleavage; output y when value >= threshold, n when value < threshold.

{"variant id": "U27A C44A", "qualitative label": "y"}
{"variant id": "A42U U60G", "qualitative label": "y"}
{"variant id": "G5A G80U", "qualitative label": "n"}
{"variant id": "G31C A87U", "qualitative label": "y"}
{"variant id": "G50U A78U", "qualitative label": "y"}
{"variant id": "C26A G28A", "qualitative label": "n"}
{"variant id": "A43G G50U", "qualitative label": "y"}
{"variant id": "G35A C62A", "qualitative label": "y"}
{"variant id": "C3A C75G", "qualitative label": "n"}
{"variant id": "C4U C21G", "qualitative label": "n"}
{"variant id": "C26U C49G", "qualitative label": "y"}
{"variant id": "C7A G28C", "qualitative label": "n"}
{"variant id": "G25U C57G", "qualitative label": "y"}
{"variant id": "C19A G35U", "qualitative label": "n"}
{"variant id": "G5U U12C", "qualitative label": "n"}
{"variant id": "G2U C62U", "qualitative label": "n"}
{"variant id": "G1U A8U", "qualitative label": "y"}
{"variant id": "G5C U46G", "qualitative label": "n"}
{"variant id": "G17A C44A", "qualitative label": "y"}
{"variant id": "G11U G35U", "qualitative label": "n"}
{"variant id": "C15G G59A", "qualitative label": "y"}
{"variant id": "C24G G54C", "qualitative label": "n"}
{"variant id": "C4U C30A", "qualitative label": "n"}
{"variant id": "C58G A71C", "qualitative label": "y"}
{"variant id": "C33U U72A", "qualitative label": "y"}
{"variant id": "U20G A42U", "qualitative label": "n"}
{"variant id": "G35A U65A", "qualitative label": "y"}
{"variant id": "C19U C49U", "qualitative label": "n"}
{"variant id": "A16U C58G", "qualitative label": "y"}
{"variant id": "G59A G74A", "qualitative label": "y"}
{"variant id": "G35C G52A", "qualitative label": "y"}
{"variant id": "C15G U69C", "qualitative label": "y"}
{"variant id": "U27C A77U", "qualitative label": "y"}
{"variant id": "C62A C64A", "qualitative label": "y"}
{"variant id": "U27A U65C", "qualitative label": "y"}
{"variant id": "C26U G50C", "qualitative label": "y"}
{"variant id": "C18A C33U", "qualitative label": "n"}
{"variant id": "G6C C22A", "qualitative label": "n"}
{"variant id": "U60A C75U", "qualitative label": "y"}
{"variant id": "G1U C36A", "qualitative label": "n"}
{"variant id": "C7A G68U", "qualitative label": "y"}
{"variant id": "C30U U79G", "qualitative label": "n"}
{"variant id": "C7A G40U", "qualitative label": "y"}
{"variant id": "C15A C26G", "qualitative label": "y"}
{"variant id": "C4G G34U", "qualitative label": "y"}
{"variant id": "U46A G74U", "qualitative label": "y"}
{"variant id": "G54A C61A", "qualitative label": "y"}
{"variant id": "C21G U60G", "qualitative label": "n"}
{"variant id": "A8G G39C", "qualitative label": "n"}
{"variant id": "G25A G28C", "qualitative label": "y"}

Reference for the values: the RNAGym collection of RNA variant scans (doi:10.7554/elife.80360)
